B1: library; numbered along this chain (parent)
chain: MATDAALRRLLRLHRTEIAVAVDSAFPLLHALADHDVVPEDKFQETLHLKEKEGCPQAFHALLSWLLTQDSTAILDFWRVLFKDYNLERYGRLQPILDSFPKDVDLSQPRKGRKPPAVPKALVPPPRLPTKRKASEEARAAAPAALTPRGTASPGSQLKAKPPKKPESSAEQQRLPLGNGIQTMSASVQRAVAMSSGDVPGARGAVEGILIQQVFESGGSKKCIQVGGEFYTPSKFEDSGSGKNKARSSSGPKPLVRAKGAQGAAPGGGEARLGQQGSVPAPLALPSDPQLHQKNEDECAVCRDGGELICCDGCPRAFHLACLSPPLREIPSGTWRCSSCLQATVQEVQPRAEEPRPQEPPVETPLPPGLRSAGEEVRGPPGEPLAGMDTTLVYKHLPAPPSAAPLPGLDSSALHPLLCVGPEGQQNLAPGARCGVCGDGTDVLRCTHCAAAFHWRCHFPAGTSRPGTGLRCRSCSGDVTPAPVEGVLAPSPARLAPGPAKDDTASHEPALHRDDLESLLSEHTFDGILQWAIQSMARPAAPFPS

Variants of: B1
protocol-text: AIRE transcriptional activation functional score (insulin promoter-GFP; nonsense median 0, synonymous median 1) (normalised score); higher = higher AIRE activity (more reporter activation)
condition-label: with insulin promoter-GFP reporter in HEK293
reported-metric: AIRE transcriptional activation functional score

T447Q
0.797
D84S
1.11
G498A
1.09
W455M
0.774
G421V
0.933
A5D
0.947
G374Y
0.519
G333C
1.14
L158K
0.11
F236M
-0.434
A493G
1.15
I209C
-0.0153
Q212P
0.358
G260D
0.772
L285Y
0.979
P407M
1.6
H14Q
0.144
D478I
1.06
P124T
0.68
V436N
1.19
R473M
0.947
G408W
1.34
